# test-target: Ftu-1 β-lactamase (Francisella tularensis)
# Sequence (Q5NH60 1-287): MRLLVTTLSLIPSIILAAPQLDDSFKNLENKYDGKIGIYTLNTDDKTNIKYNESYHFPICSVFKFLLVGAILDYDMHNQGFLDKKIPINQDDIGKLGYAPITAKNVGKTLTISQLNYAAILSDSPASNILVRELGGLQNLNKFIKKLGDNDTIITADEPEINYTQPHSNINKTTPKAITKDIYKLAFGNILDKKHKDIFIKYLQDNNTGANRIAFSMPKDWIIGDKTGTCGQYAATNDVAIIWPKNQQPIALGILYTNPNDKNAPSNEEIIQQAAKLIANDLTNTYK
# assay-text: biochemical
measured-attribute: pKi
As a rule, pKi stands for the negative log10 of the concentration, concentration in M.

Worked cases, pKi given:
O=C(O)[C@H]1/C(=C/CO)O[C@@H]2CC(=O)N21 [clavulanic acid] | 4.51
C[C@@H](O)[C@H]1C(=O)N2C(C(=O)O)=C(S[C@@H]3CN[C@H](C(=O)N(C)C)C3)[C@H](C)[C@H]12 [meropenem] | 5.82
C[C@@H](O)[C@H]1C(=O)N2C(C(=O)O)=C(SCCN=CN)C[C@H]12 [imipenem] | 4.13

Summary for this compound, CC1(C)[C@H](C(=O)O)N2C(=O)C[C@H]2S1(=O)=O [sulbactam] : pKi is 4.68

Provenance of the data: paper PMC10125328
